Value source: patent US9926282B2

# experimental_system: ROCK2 (Homo sapiens (Human), UniProt O75116)
# Sequence (O75116 whole entry, species assumed): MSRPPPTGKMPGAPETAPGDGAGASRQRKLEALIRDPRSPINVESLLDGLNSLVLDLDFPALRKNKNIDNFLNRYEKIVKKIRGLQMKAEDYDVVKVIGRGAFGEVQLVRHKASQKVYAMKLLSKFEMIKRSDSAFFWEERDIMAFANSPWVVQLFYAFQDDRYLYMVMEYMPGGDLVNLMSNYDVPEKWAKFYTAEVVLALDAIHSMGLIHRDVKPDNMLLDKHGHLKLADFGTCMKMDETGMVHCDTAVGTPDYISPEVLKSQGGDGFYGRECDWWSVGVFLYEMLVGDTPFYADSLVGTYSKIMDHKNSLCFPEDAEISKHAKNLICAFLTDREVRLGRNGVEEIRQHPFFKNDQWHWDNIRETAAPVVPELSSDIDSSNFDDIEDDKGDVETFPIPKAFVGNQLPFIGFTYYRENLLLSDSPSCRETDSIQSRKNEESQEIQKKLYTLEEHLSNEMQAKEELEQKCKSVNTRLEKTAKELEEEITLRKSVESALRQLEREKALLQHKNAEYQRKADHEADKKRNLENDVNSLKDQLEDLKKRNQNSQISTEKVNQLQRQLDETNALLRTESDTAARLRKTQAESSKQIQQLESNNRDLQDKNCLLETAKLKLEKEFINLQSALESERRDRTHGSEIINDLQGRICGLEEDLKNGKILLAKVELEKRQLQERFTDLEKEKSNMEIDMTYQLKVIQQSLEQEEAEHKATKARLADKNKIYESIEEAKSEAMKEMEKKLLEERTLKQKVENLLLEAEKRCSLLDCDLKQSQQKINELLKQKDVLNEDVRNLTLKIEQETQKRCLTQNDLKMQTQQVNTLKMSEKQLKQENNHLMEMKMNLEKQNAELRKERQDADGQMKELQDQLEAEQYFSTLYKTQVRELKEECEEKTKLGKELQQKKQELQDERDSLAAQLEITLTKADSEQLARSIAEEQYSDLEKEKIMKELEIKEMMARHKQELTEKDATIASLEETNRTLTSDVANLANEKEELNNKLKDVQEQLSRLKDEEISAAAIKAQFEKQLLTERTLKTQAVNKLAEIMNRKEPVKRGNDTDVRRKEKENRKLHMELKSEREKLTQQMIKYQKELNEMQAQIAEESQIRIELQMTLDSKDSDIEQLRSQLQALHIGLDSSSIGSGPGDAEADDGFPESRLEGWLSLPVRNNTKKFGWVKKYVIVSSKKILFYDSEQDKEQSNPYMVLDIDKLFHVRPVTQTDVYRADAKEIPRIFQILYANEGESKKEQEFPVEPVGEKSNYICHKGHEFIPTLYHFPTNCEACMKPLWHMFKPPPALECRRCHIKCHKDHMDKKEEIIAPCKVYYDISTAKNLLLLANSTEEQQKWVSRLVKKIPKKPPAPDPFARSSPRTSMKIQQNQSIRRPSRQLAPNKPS
# assay_explanation: ROCK assay (LABCHIP peptide phosphorylation), ROCK2
# Assay type: biochemical
# assay_setup: 5 μM ATP, 1.5 μM peptide substrate
observed_property: IC50

>>> print(df.to_string())
                                    compound  observed_property  recorded_measurement
 0  O=C(Nc1ccc(-c2n[nH]c(=O)c3ccccc23)cc1)c1ccc(N2CCCC2)cc1               IC50         0.1 to 100 nM
 1  Cc1onc(NC(=O)Cc2ccc(-c3n[nH]c(=O)c4ccccc34)cc2)c1C               IC50         0.1 to 100 nM
 2  CN(Cc1ccccc1)C(=O)Cc1ccc(-c2n[nH]c(=O)c3ccccc23)cc1               IC50      1000 to 50000 nM
 3  COc1ccc(-n2nnc(C(=O)Nc3ccc(-c4n[nH]c(=O)c5ccccc45)cc3)c2C)cc1               IC50         0.1 to 100 nM
 4  COC(=O)COc1ccc2c(c1)N(C(=O)Cc1ccc(-c3n[nH]c(=O)c4ccccc34)cc1)CC2               IC50         0.1 to 100 nM
 5  COCC(O)Cn1cc(C(=O)Nc2ccc(-c3n[nH]c(=O)c4ccccc34)cc2)cn1 (stereo not shown)               IC50         0.1 to 100 nM
 6  Cc1cc(NC(=O)c2nn(CC(C)(C)O)c3ccccc23)ccc1-c1n[nH]c(=O)c2ccccc12               IC50         0.1 to 100 nM
 7  O=c1[nH]nc(-c2ccc(Nc3nc4ccccc4o3)cc2)c2ccccc12               IC50         0.1 to 100 nM
 8  O=C(Oc1ccc(-c2n[nH]c(=O)c3ccccc23)cc1)N1Cc2ccc(F)cc2C1               IC50         0.1 to 100 nM
 9  CC1(C)CCc2[nH]cc(C(=O)Nc3ccc(-c4n[nH]c(=O)c5ccccc45)cc3)c2C1=O               IC50        101 to 1000 nM
10  COc1ccccc1-n1nnc(C(=O)Nc2ccc(-c3n[nH]c(=O)c4ccccc34)cc2)c1C               IC50         0.1 to 100 nM
11  O=c1[nH]nc(-c2ccc(Nc3nncc4ccccc34)cc2)c2ccccc12               IC50         0.1 to 100 nM
12  O=C(Cc1ccc(-c2n[nH]c(=O)c3ccccc23)cc1)N1CCc2ccc(O[C@H]3CCOC3)cc21               IC50         0.1 to 100 nM
13  O=C(Nc1ccc(-c2n[nH]c(=O)c3ccccc23)cc1)c1ncn(-c2ccccn2)n1               IC50         0.1 to 100 nM
14  COc1ccccc1N1CCC(C(=O)Nc2ccc(-c3n[nH]c(=O)c4ccccc34)cc2)C1=O (stereo not shown)               IC50        101 to 1000 nM
15  CN(C)c1ccc(C(=O)Nc2ccc(-c3c[nH]c(=O)c4ccccc34)cc2)cc1               IC50         0.1 to 100 nM
